Molecular target: Glucocorticoid receptor (Homo sapiens) (UniProt P04150)
Sequence (P04150 whole entry, looked up): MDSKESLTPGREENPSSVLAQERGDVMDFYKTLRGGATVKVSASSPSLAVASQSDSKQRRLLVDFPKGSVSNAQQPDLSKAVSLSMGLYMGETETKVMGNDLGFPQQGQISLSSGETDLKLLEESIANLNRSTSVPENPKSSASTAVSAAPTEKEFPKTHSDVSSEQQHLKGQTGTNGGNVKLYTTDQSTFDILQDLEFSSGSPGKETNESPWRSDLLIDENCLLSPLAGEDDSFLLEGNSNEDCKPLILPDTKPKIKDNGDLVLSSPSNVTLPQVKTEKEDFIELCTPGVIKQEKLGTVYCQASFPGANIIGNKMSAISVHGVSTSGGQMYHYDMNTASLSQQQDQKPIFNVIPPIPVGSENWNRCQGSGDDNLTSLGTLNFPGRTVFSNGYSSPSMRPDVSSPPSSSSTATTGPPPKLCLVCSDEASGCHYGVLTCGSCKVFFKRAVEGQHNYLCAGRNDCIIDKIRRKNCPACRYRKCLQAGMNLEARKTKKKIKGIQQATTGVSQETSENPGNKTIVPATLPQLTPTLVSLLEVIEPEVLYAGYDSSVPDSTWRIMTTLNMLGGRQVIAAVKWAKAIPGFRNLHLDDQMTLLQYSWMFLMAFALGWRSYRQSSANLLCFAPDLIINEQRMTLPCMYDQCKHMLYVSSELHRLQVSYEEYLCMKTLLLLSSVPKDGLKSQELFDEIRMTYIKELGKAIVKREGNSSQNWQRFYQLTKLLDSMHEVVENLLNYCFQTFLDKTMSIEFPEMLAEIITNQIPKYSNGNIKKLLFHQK
Assay: qHTS assay for small molecule antagonists of glucocorticoid receptor signaling (AID 588533);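 also: cells stimulated with 2 nM dexamethasone as agonist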
Details: HeLa MMTV-bla, GRE beta-lactamase ratio, antagonist mode, 18 h; series mostly up to 76.8 µM
Excerpt: NIH Chemical Genomics Center [NCGC] U.S. Environmental Protection Agency [EPA] National Institutes of Environmental Health Sciences [NIEHS] National Toxicology Program [NTP] […] NCGC Assay Protocol Summary Using a beta-lactamase reporter-gene under control of glucocorticoid response element (GRE), a cell-based assay [CellSensor MMTV-bla HeLa cell line assay developed by Invitrogen] was used to measure GR ligands signaling. […] Detection; Fluorescence; Envision plate reader
Inconclusive results are not listed. The source made the active and inactive calls. Calls follow the shape of the dose curve; as a rule, active = well fitted inhibition curve with a large enough effect in the signal ratio, with a control signal flat (not every such curve was filed as active); inconclusive = small, poorly fitted or top-dose-only effect, or effect the other way, or a change in a side signal; inactive = flat fitted curve, though single readings scatter; the % refers to the signal ratio.
Please answer using one outcome listed in active, inactive

Look over these answered cases.
{"chemical string": "CC(=O)N[C@@H](CS)C(=O)O", "class assignment": "inactive"}
{"chemical string": "O=c1c(-c2ccc(O)cc2)coc2cc(O)ccc12", "class assignment": "inactive"}
{"chemical string": "CCCCC1C(=O)N(c2ccccc2)N(c2ccccc2)C1=O", "class assignment": "inactive"}
{"chemical string": "O=C1NC(=O)C(c2ccccc2)(c2ccccc2)N1", "class assignment": "inactive"}
{"chemical string": "CC(=O)c1ccc(S(=O)(=O)NC(=O)NC2CCCCC2)cc1", "class assignment": "inactive"}
{"chemical string": "O=c1cc(-c2ccc(O)cc2)oc2cc(O)cc(O)c12", "class assignment": "active"}

Outcome logged for O=C(O)c1cc(-c2ccccc2)nc2ccccc12 in this assay: inactive

====

assay: Primary qHTS for small molecule stabilizers of the endoplasmic reticulum resident proteome: Secreted ER Calcium Modulated Protein (SERCaMP) assay (AID 1508630); conditions: SH-SY5Y GLuc-SERCaMP (Gaussia luciferase released on ER calcium loss) secretion, thapsigargin, luminescence; series mostly up to 38.4 µM; also: % is scaled to controls: 0 for no effect and ±100 for the full control effect
Inconclusive results are not listed. The source made the active and inactive calls. Calls come from the whole dose curve; as a rule, active = well fitted inhibition curve with a large enough effect; inconclusive = small, poorly fitted or top-dose-only effect; inactive = no such curve, though single readings can be large or run the other way.
readout: outcome

{"compound": "O=C1C[C@@H](c2ccc(O)cc2)Oc2cc(O)cc(O)c21", "assay value": "inactive"}
{"compound": "O=c1c(-c2ccc(O)cc2)coc2cc(OC3O[C@H](CO)[C@H](O)[C@H](O)[C@H]3O)cc(O)c12 (some centres undefined)", "assay value": "inactive"}
{"compound": "O=C1NCC2(CCN(CCc3ccccc3)CC2)O1", "assay value": "inactive"}
{"compound": "COc1ccc(-c2oc3c(CC=C(C)C)c(OC4O[C@H](CO)[C@@H](O)[C@H](O)[C@@H]4O)cc(O)c3c(=O)c2OC2O[C@@H](C)[C@H](O)[C@@H](O)[C@@H]2O)cc1 (some centres undefined)", "assay value": "inactive"}

Now turn to the next compound.
Recorded outcome of CC1CCC(C(=O)N(c2cc(C#CC(C)(C)C)sc2C(=O)O)C2CCC(O)CC2)CC1 (centres undefined) , please. inactive

====

assay: Quantitative High-Throughput drug screen in 47 multiple myeloma cell lines against the NCATS MIPE library collection: UTMC2_PLB cell viability assay (AID 1919868); conditions: CellTiter-Glo ATP luminescence, 48 h; also: nearly all actives have a fitted effect of over 55% in size
Results filed as inconclusive are left out. The source made the active and inactive calls. Calls follow the shape of the dose curve; as a rule, active = well fitted cell-killing curve with a large enough effect; inconclusive = small, poorly fitted or top-dose-only effect, or effect the other way; inactive = no such curve, though single readings can be large or run the other way.
Return exactly one item of YES (active), NO (inactive)

{"compound": "COc1cc2ncnc(Nc3ccc(F)c(Cl)c3)c2cc1OCCCN1CCOCC1", "class assignment": "YES"}
{"compound": "COc1ccc(Cc2nccc3cc(OC)c(OC)cc23)cc1OC", "class assignment": "NO"}
{"compound": "Cc1[nH]c(C=C2C(=O)Nc3ccc(S(=O)(=O)Cc4c(Cl)cccc4Cl)cc32)c(C)c1C(=O)N1CCC[C@H]1CN1CCCC1", "class assignment": "YES"}
{"compound": "CC(=O)Oc1cc2c(s1)CCN(C(C(=O)C1CC1)c1ccccc1F)C2 (stereo not given)", "class assignment": "YES"}

Then this compound:
Write down the call the test reported for this compound. Item: NS(=O)(=O)c1cccc2c1C(=O)c1cccc(O)c1C2=O YES

====

assay: qHTS for identification of novel therapeutic agents for treatment of microphthalmiaassociated transcription factor (MiT) renal cell carcinoma (RCC) (AID 1963991); details: TFE3-RCC viability, CellTiter-Glo, 48 h; measured here: UOK145 Z-AUC; stronger effect = lower value;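 also: curves scaled with 100% = DMSO viability and 0% = empty wells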
Records with an inconclusive call do not appear.
Here, each record is paired with measured z-score data.
Lab note: jot down the number only; don't add units.

Look at this molecule and give its reported z-score. O=C(O)c1ccccc1C(=O)Nc1ccc(-c2ccccc2)cc1 0.469

====

biological target: Thyrotropin-releasing hormone receptor (Homo sapiens) (UniProt P34981); assay: qHTS for Small Molecule Agonists and Allosteric Enhancers of Human TRH Receptor: Validation Screen for Agonists (AID 493127); settings: TRH receptor agonist cell assay; at 2 µM; stronger effect = higher value;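 also: intracellular calcium rise by fluo-8 fluorescence before TRH EC20 addition; 0% is about no effect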
Sequence (P34981 whole entry, looked up): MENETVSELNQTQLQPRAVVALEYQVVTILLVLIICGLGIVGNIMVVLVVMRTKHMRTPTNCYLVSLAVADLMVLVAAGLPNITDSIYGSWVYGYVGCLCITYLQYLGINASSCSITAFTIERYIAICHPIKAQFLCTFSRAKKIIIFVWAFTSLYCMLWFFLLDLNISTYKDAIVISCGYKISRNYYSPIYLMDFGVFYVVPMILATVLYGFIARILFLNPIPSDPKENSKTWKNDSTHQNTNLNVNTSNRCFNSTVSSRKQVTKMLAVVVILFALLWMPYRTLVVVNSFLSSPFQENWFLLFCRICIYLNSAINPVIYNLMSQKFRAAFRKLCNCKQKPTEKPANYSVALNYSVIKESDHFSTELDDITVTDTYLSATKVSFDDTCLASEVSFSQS
activation: recorded values
Your answer should be a plain number; it is taken to be in %.

{"chemical string": "COc1ccccc1N1CCN(CCCNc2cc(=O)n(C)c(=O)n2C)CC1", "unit spec": "%", "activation": -2.81}
{"chemical string": "CC/C(=C(\\c1ccccc1)c1ccc(OCCN(C)C)cc1)c1ccccc1", "unit spec": "%", "activation": -2.75}
{"chemical string": "CC1(C)CCC2=C(O1)c1ccccc1C(=O)C2=O", "unit spec": "%", "activation": -3.69}
{"chemical string": "CC(=O)c1ccc(S(=O)(=O)NC(=O)NC2CCCCC2)cc1", "unit spec": "%", "activation": 0.188}
{"chemical string": "CCCCC1C(=O)N(c2ccccc2)N(c2ccccc2)C1=O", "unit spec": "%", "activation": 1.38}

Now for a further molecule.
API: value(readout= activation, system= Thyrotropin-releasing hormone receptor (Homo sapiens) (UniProt P34981), query= CCN(CC)C(=O)c1ccc(O)c(OC)c1 ) 0.938

====

test: qHTS of pediatric cancer cell lines to identify multiple opportunities for drug repurposing: Confirmatory screen for BT-12 cells (AID 1347112); conditions: BT-12 rhabdoid tumor cells, viability; series mostly up to 45.9 µM;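 also: viability read after 48 h of compound exposure; nearly all actives have a fitted effect of over 55% in size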
Records with an inconclusive call do not appear. Activity calls are given as the source filed them. Calls follow the shape of the dose curve; as a rule, active = well fitted cell-killing curve with a large enough effect; inconclusive = small, poorly fitted or top-dose-only effect; inactive = flat fitted curve, though single readings scatter.
Log the outcome using a class from active, inactive

Reference set (10 entries):
{"compound": "COc1cccc(-c2cc(=O)c3ccccc3o2)c1N", "class assignment": "inactive"}
{"compound": "NC1=N[C@@]2(c3cc(NC(=O)c4ccc(F)cn4)ccc3F)COC[C@@H]2CS1", "class assignment": "inactive"}
{"compound": "CC=C(C)C(=O)O[C@H]1C(C)=C[C@]23C(=O)[C@@H](C=C(CO)[C@@H](O)[C@]12O)[C@H]1[C@@H](C[C@H]3C)C1(C)C", "class assignment": "inactive"}
{"compound": "CO[C@H]1C[C@@H]2CC[C@@H](C)[C@@](O)(O2)C(=O)C(=O)N2CCCC[C@@H]2C(=O)O[C@H]([C@H](C)C[C@@H]2CC[C@H](OCCO)[C@H](OC)C2)CC(=O)[C@H](C)C=C(C)[C@@H](O)[C@@H](OC)C(=O)[C@H](C)C[C@H](C)C=CC=CC=C1C", "class assignment": "inactive"}
{"compound": "CC1(C)O[C@H]2C[C@@H]3[C@H]4CCC5=CC(=O)C=C[C@]5(C)[C@@]4(F)[C@@H](O)C[C@]3(C)[C@]2(C(=O)CO)O1", "class assignment": "inactive"}
{"compound": "NS(=O)(=O)c1cccc2c1C(=O)c1cccc(O)c1C2=O", "class assignment": "active"}
{"compound": "COc1cc2nc(-c3ccc(N4CCN(C)CC4)cc3)nc(NCCN3CCOCC3)c2cc1OC", "class assignment": "active"}
{"compound": "O=C(NCc1ccncc1)C12C[C@H]3C[C@@H](C1)CC(c1ccc(Cl)cc1)(C3)C2", "class assignment": "active"}
{"compound": "O=C1c2ccccc2-[n+]2ccc3c([nH]c4ccccc43)c21", "class assignment": "active"}
{"compound": "CC(=O)Oc1cc2c(s1)CCN(C(C(=O)C1CC1)c1ccccc1F)C2 (stereo unspecified)", "class assignment": "inactive"}

So what was the verdict on CC(C)n1nc(-c2ccc3oc(N)nc3c2)c2c(N)ncnc21 in this test? active

====

test system: HB3; assay: qHTS profiling for inhibitors of Plasmodium falciparum proliferation (AID 504749);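 also: 0% = DMSO vehicle and full inhibition = artemisinin control; nearly all actives have a fitted effect of over 60% in size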; conditions: P. falciparum in erythrocytes, SYBR Green DNA, 72 h; series mostly up to 28.7 µM
Records with an inconclusive call do not appear. Activity calls are given as the source filed them. The call rests on the fitted dose curve; in most records, active means well fitted inhibition curve with a large enough effect; inconclusive means small, poorly fitted or top-dose-only effect; inactive means flat fitted curve, though single readings scatter.
readout: outcome

{"chemical string": "CCOC(=O)O[C@]1(C(=O)OCCl)CC[C@@H]2[C@H]3CCC4=CC(=O)C=C[C@]4(C)[C@@H]3[C@@H](O)C[C@@]21C", "readout": "outcome", "assay value": "inactive"}
{"chemical string": "CC1(C)O[C@H]2C[C@@H]3[C@H]4CCC5=CC(=O)C=C[C@]5(C)[C@@]4(F)[C@@H](O)C[C@]3(C)[C@]2(C(=O)CO)O1", "readout": "outcome", "assay value": "inactive"}
{"chemical string": "CCN1CCC[C@H]1CNC(=O)c1cc(S(N)(=O)=O)ccc1OC", "readout": "outcome", "assay value": "inactive"}
